Ref: ChEMBL document CHEMBL3396981

# System: Mycobacterium tuberculosis
# MEASUREMENT DESCRIPTION: Antimycobacterial activity against INH, RIF, rifabutin, streptomycin-resistant Mycobacterium tuberculosis 9449/2006 after 21 days by microdilution method
# Assay type: functional
# EXPERIMENTAL SETUP: 9449/2006, 504 h
REPORTED METRIC: MIC (µM)
Write it as a number; the unit µM goes unstated.

// known answers, use as guide
• O=C(Oc1ccc(Br)cc1C(=O)Nc1ccc(C(F)(F)F)cc1)c1ccc(Br)cc1 = 1
• O=C(Oc1ccc(Cl)cc1C(=O)Nc1ccc(Cl)c(Cl)c1)c1ccc([N+](=O)[O-])cc1 = 0.5
• Cc1ccc(C(=O)Oc2ccc(Br)cc2C(=O)Nc2ccc(C(F)(F)F)cc2)cc1 = 1
• O=C(Oc1ccc(Cl)cc1C(=O)Nc1ccc(C(F)(F)F)cc1)c1ccc([N+](=O)[O-])cc1 = 1

Hey, Mycobacterium tuberculosis data for O=C(Oc1ccc(Cl)cc1C(=O)Nc1ccc(C(F)(F)F)cc1)c1ccc(Br)cc1 : MIC came out at 1
